B1: Pistol ribozyme (parent)
chain: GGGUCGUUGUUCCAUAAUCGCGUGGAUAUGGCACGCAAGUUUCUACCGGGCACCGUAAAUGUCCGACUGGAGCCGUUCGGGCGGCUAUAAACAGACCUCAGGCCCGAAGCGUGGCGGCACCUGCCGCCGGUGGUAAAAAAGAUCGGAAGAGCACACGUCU

Variants of: B1
Assay: aptazyme ON/OFF ratio, guanine; higher = stronger switching; co-transcriptional cleavage with and without guanine
QUANTITY_KIND: aptazyme ON/OFF ratio
One number for each entry.

U8G G9C U10A U11G C12U C13U : 1.17
U7A G9A U11G : 1.67
U7G U8C G9A U10A U11A C12G C13G : 1.13

Working through the 3 variants below one at a time, give aptazyme ON/OFF ratio for each.
1. U8C U10A U11G C12G C13U
2. U8G G9C U10A U11G C12G C13U
3. U8C G9U U10A U11G C13U

1: 1.28; 2: 1.22; 3: 1.32

All values here come from the RNAGym collection of RNA variant scans (doi:10.1021/acssynbio.7b00057).
